- Tested on: SK-MEL-28
- experiment_description: NCI tumour cell line growth inhibition, 48 h
Active and inactive are the calls of the source. Cut-off read from the data, not from the text of the source: active = GI50 up to about 1.1 µM and inactive = higher.
Assign a class; possible classes are true (1) = active, false (0) = inactive

Query block: Could you kindly confirm the outcome this assay logged for `CCCC(=O)N[C@H]1CCc2cc(OC)c(OC)c(OC)c2-c2ccc(SC)c(=O)cc21` ?
Result block: true (1)

Query block: Could you kindly confirm the outcome this assay logged for `c1ccc2c(c1)nc1n2CCSC1` ?
Result block: false (0)

Query block: Could you kindly confirm the outcome this assay logged for CCOP(=O)(OCC)C(c1ccc(F)cc1)N(C(=O)NC(F)(F)F)c1ccc(OC)cc1 (stereo not drawn) ?
Result block: false (0)

Query block: Could you kindly confirm the outcome this assay logged for NS(=O)(=O)c1ccc(/N=N/c2ccc(O)c(C(=O)O)c2)cc1 [SALAZOSULFAMIDE] ?
Result block: false (0)

Query block: Could you kindly confirm the outcome this assay logged for `N#CCCN(CCC#N)c1ccc(/C=C2\N=C(c3ccccc3)N(c3ccc(C(=O)O)cc3)C2=O)cc1` ?
Result block: false (0)

Query block: Could you kindly confirm the outcome this assay logged for `N/C(=N\c1ccc(Cl)cc1)NS(=O)(=O)c1cccc2nsnc12` ?
Result block: false (0)

Query block: Could you kindly confirm the outcome this assay logged for COc1cc(C(=O)CC2OC(=O)C(Cl)=C2Cl)ccc1Cl (stereo not drawn) ?
Result block: false (0)

Query block: Could you kindly confirm the outcome this assay logged for CNC(=O)N(CCCCC(NC(C)=O)C(=O)NCc1ccccc1)Cc1ccccc1 (stereo not drawn) ?
Result block: false (0)

Query block: Could you kindly confirm the outcome this assay logged for `CN(C)CCc1c2c(nc3ccccc13)C(=O)c1cccnc1C2=O` ?
Result block: true (1)

Query block: Could you kindly confirm the outcome this assay logged for `COc1ccc(C2=NOP(c3ccccc3)(c3ccccc3)(c3ccccc3)C2)cc1` ?
Result block: false (0)

Query block: Could you kindly confirm the outcome this assay logged for `CCOP(=O)(OCC)C(C)(C)OC(=O)NC#N` ?
Result block: false (0)

Query block: Could you kindly confirm the outcome this assay logged for `CSc1nc(Nc2cccc(C(F)(F)F)c2)c2c(N)nn(C)c2n1` ?
Result block: false (0)

Query block: Could you kindly confirm the outcome this assay logged for COC(=O)C(=O)C(C(=O)OC)C(=O)C(=O)Nc1ccccc1C(N)=O (stereo not drawn) ?
Result block: false (0)
